Molecular target: α1R119Qβ2E155Q+R207Qγ2 GABAA receptor (Mus musculus, UniProt P62812+P63137, E179Q/R146Q/R231Q)
Assay: cell-based
# IC50 per record follows
Express it in nM; write the number only.

[
  {
    "compound": "COc1ccc(-c2ccc(=N)n(CCCC(=O)O)n2)cc1 [gabazine, reference compound]",
    "value_reported": 2260
  }
]

Okay, now this compound:
# IC50 (compound: N=c1ccc(-c2ccc(OCc3ccc(C(=O)c4ccccc4)cc3)cc2)nn1CCCC(=O)O [GZ-B1] ) is 426

---

Biological target: α1β2R207Qγ2 GABAA receptor (Mus musculus, UniProt P62812+P63137, R231Q)
Assay: cell-based
Details: IC50, inhibition of GABA EC50 response, α1β2R207Qγ2
Entries and their pIC50
API: returns pIC50 as number; meaning -log10 of concentration in mol/L.

[
  {
    "compound": "COc1ccc(-c2ccc(=N)n(CCCC(=O)O)n2)cc1 [gabazine, reference compound]",
    "assayed_system": "α1β2R207Qγ2 GABAA receptor (Mus musculus, UniProt P62812+P63137, R231Q)",
    "pIC50": 5.77
  }
]

Turning to the following compound.
Per the record, N=c1ccc(-c2ccc(OCc3ccc(C(=O)c4ccccc4)cc3)cc2)nn1CCCC(=O)O has pIC50 of 6.31

---

Target: α1β2E155Q+R207Qγ2 GABAA receptor (Mus musculus, UniProt P62812+P63137, E179Q/R231Q)
Test: cell-based
Items are presented alongside their recorded IC50.
A number alone suffices; assume µM.

[
  {
    "molecule": "N=c1ccc(-c2ccc(OCc3ccc(C(=O)c4ccccc4)cc3)cc2)nn1CCCC(=O)O [GZ-B1]",
    "value_reported": 0.47
  }
]

Next molecule, IC50 to be filled in.
Item COc1ccc(-c2ccc(=N)n(CCCC(=O)O)n2)cc1 [gabazine, reference compound] ; assay system α1β2E155Q+R207Qγ2 GABAA receptor (Mus musculus, UniProt P62812+P63137, E179Q/R231Q); IC50 reported as 1.38

---

Biological target: α1β2D162+163Nγ2 GABAA receptor (Mus musculus, UniProt P62812+P63137, D186N/D187N)
Assay: cell-based
metric: IC50 (µM)
Reply numerically in µM, unit not repeated.

Quick note, IC50 for N=c1ccc(-c2ccc(OCc3ccc(C(=O)c4ccccc4)cc3)cc2)nn1CCCC(=O)O landed at 13.5

---

Biological target: α1R84Qβ2R207Qγ2 GABAA receptor (Mus musculus, UniProt P62812+P63137, R111Q/R231Q)
Assay: cell-based
metric: pIC50
Just so you know, pIC50 here is -log10 of the concentration in molar units; reply with that number alone.

// pIC50 lookup, compound = N=c1ccc(-c2ccc(OCc3ccc(C(=O)c4ccccc4)cc3)cc2)nn1CCCC(=O)O , result: 3.74

---

Each item that follows carries a reported pIC50.
Target: α1β2E155Qγ2 GABAA receptor (Mus musculus, UniProt P62812+P63137, E179Q)
Test: cell-based
pIC50: −log10 of the molar value.

[
  {
    "compound": "COc1ccc(-c2ccc(=N)n(CCCC(=O)O)n2)cc1 [gabazine, reference compound]",
    "pIC50": "< 4.00"
  }
]

Turning now to a further record.
Reported pIC50 ( N=c1ccc(-c2ccc(OCc3ccc(C(=O)c4ccccc4)cc3)cc2)nn1CCCC(=O)O ) = < 4.00

---

Molecular target: α1R119Qβ2E155Qγ2 GABAA receptor (Mus musculus, UniProt P62812+P63137, E179Q/R146Q)
Assay: cell-based
pIC50: −log10 of the molar value.
Catalogue of pIC50 readings, one per entry.

[
  {
    "molecule": "N=c1ccc(-c2ccc(OCc3ccc(C(=O)c4ccccc4)cc3)cc2)nn1CCCC(=O)O",
    "pIC50": "< 4.00"
  }
]

Next molecule, pIC50 to be filled in.
α1R119Qβ2E155Qγ2 GABAA receptor (Mus musculus, UniProt P62812+P63137, E179Q/R146Q) data for COc1ccc(-c2ccc(=N)n(CCCC(=O)O)n2)cc1 [gabazine, reference compound] ; its pIC50: < 4.00

---

Target: α1R119Qβ2γ2 GABAA receptor (Mus musculus, UniProt P62812+P63137, R146Q)
Test: cell-based
Details: IC50, inhibition of GABA EC50 response, α1R119Qβ2γ2
metric: pIC50
Give only the number. pIC50 is defined as minus log10 of concentration in molar units.

[
  {
    "compound": "N=c1ccc(-c2ccc(OCc3ccc(C(=O)c4ccccc4)cc3)cc2)nn1CCCC(=O)O",
    "pIC50": 7.15
  }
]

// recorded pIC50 for COc1ccc(-c2ccc(=N)n(CCCC(=O)O)n2)cc1 [gabazine, reference compound] : 6.73

---

Target: α1β2γ2 GABAA receptor (Mus musculus, UniProt P62812+P63137)
Conditions: 10 μM GABA, 10 μM antagonist, one cycle of 10 UV flashes, 3–5 min wash
metric: GABA-induced current post-UV, normalized to control
Answer as a quantity: numeral, then unit.

Would you please look over these solved cases?
[
  {
    "compound": "N=c1ccc(-c2ccc(OCc3ccc(C4(C(F)(F)F)N=N4)cc3)cc2)nn1CCCC(=O)O [GZ-D1]",
    "assayed_system": "α1β2γ2 GABAA receptor (Mus musculus, UniProt P62812+P63137)",
    "value_reported": "79.0±4.5%"
  },
  {
    "compound": "N=c1ccc(-c2ccc(OCc3ccc(C(=O)c4ccccc4)cc3)cc2)nn1CCCC(=O)O",
    "assayed_system": "α1β2γ2 GABAA receptor (Mus musculus, UniProt P62812+P63137)",
    "value_reported": "50.8±1.8%"
  },
  {
    "compound": "COc1ccc(-c2ccc(=N)n(CCCC(=O)O)n2)cc1 [gabazine, reference compound]",
    "assayed_system": "α1β2γ2 GABAA receptor (Mus musculus, UniProt P62812+P63137)",
    "value_reported": "101.6±3.3%"
  }
]

We now examine a further compound.
In plain terms, N=c1ccc(-c2ccc(C(=O)c3ccccc3)cc2)nn1CCCC(=O)O has a documented GABA-induced current post-UV, normalized to control of 98.3±4.2%

---

Molecular target: α1β2γ2 GABAA receptor (Mus musculus, UniProt P62812+P63137)
Assay: Schild analysis of competitive antagonism in HEK cells
The following compounds are shown together with reported log10 of Kb values.
Log10 applied to Kb; unit prior to transform: nM.

Below, 5 compounds whose answers are already recorded.
[
  {
    "compound": "N=c1ccc(-c2ccc(C(=O)c3ccccc3)cc2)nn1CCCC(=O)O",
    "log10 of Kb": 2.50
  },
  {
    "compound": "N=c1ccc(-c2ccc(OCc3ccc(C4(C(F)(F)F)N=N4)cc3)cc2)nn1CCCC(=O)O [GZ-D1]",
    "log10 of Kb": 2.12
  },
  {
    "compound": "[N-]=[N+]=Nc1ccc(COc2ccc(-c3ccc(=N)n(CCCC(=O)O)n3)cc2)cc1",
    "log10 of Kb": 1.64
  },
  {
    "compound": "COc1ccc(-c2ccc(=N)n(CCCC(=O)O)n2)cc1 [gabazine, reference compound]",
    "log10 of Kb": 2.48
  },
  {
    "compound": "N=c1ccc(-c2ccc(OCc3ccc(C(=O)c4ccccc4)cc3)cc2)nn1CCCC(=O)O",
    "log10 of Kb": 2.18
  }
]

Memo: N=c1ccc(-c2ccc(OCc3ccccc3)cc2)nn1CCCC(=O)O , reported log10 of Kb: 1.11

---

Target: α1R119Qβ2γ2 GABAA receptor (Mus musculus, UniProt P62812+P63137, R146Q)
Assay: cell-based
Details: IC50, α1R119Qβ2γ2, as printed in text
Recorded pIC50 values for a group of molecules are listed next.
pIC50 here: minus log base 10 of the concentration, concentration in moles per litre.

[
  {
    "molecule": "N=c1ccc(-c2ccc(OCc3ccc(C(=O)c4ccccc4)cc3)cc2)nn1CCCC(=O)O",
    "metric": "pIC50",
    "value_reported": 7.14
  }
]

// field: pIC50; key: COc1ccc(-c2ccc(=N)n(CCCC(=O)O)n2)cc1 [gabazine, reference compound] ; value = 6.73

---

Target: α1R84Qβ2γ2 GABAA receptor (Mus musculus, UniProt P62812+P63137, R111Q)
Experiment: cell-based
Conditions: pIC50, inhibition of GABA EC50 response
metric: pIC50
A value of pIC50 is the negative decimal logarithm of a concentration given in moles per litre.

The molecule N=c1ccc(-c2ccc(OCc3ccc(C(=O)c4ccccc4)cc3)cc2)nn1CCCC(=O)O [GZ-B1] showed pIC50 equal to 5.37
